# ASSAYED_SYSTEM: T1, Human CD137 ECD (human)
# T1 construct: entry includes C-terminal His-tag and biotin acceptor peptide; also called human CD137 extracellular domain; 4-1BB
# T1 sequence (chain, as listed by the source limits assumed): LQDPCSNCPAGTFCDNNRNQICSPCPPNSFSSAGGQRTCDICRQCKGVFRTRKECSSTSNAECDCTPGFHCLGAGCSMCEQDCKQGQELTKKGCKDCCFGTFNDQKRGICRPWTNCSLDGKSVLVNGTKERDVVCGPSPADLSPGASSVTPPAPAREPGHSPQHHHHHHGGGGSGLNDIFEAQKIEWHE
# ASSAY_METHOD_TEXT: Biacore SPR, vs parent H183/L072
OBSERVED_PROPERTY: fold change of affinity (fold)
Numbers only here, please. The scale is fold.

Worked examples follow.
BINDER	fold change of affinity (fold)
H183/L072 VL V94E (antibody, name in Kabat numbering, V domains shown, Dual-Ig) VH: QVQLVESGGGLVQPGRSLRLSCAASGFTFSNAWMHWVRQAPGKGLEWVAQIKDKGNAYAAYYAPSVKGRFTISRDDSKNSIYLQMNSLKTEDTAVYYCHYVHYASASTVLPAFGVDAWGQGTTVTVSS VL: DIVMTQSPLSLPVTPGEPASISCQASQELVHMNRNTYLHWYQQKPGQAPRLLIYKVSNRFPGVPDRFSGSGSGTDFTLKISRVEAEDVGVYYCAQGTSEPFTFGQGTKLEIK	0
H183/L072 VL Y32F (antibody, name in Kabat numbering, V domains shown, Dual-Ig) VH: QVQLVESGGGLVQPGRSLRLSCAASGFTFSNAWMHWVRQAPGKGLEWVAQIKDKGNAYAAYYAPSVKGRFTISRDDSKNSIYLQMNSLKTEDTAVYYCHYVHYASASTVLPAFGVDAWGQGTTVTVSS VL: DIVMTQSPLSLPVTPGEPASISCQASQELVHMNRNTFLHWYQQKPGQAPRLLIYKVSNRFPGVPDRFSGSGSGTDFTLKISRVEAEDVGVYYCAQGTSVPFTFGQGTKLEIK	1.7

Now for another entry.
Noted for H183/L072 VL L27bE (antibody, name in Kabat numbering, V domains shown, Dual-Ig) VH: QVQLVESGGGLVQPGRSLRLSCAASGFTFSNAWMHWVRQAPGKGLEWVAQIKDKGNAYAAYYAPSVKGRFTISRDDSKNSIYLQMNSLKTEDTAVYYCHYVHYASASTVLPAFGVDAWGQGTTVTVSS VL: DIVMTQSPLSLPVTPGEPASISCQASQEEVHMNRNTYLHWYQQKPGQAPRLLIYKVSNRFPGVPDRFSGSGSGTDFTLKISRVEAEDVGVYYCAQGTSVPFTFGQGTKLEIK : its fold change of affinity reads 0.2
